System: SNB-19 CNS
Test: NCI-60 one-dose screen, 48 h
Settings: 10 µM unless noted
This is part of a sample that, as a whole, favours compounds with a hit. Of some 83,000 tested, about 20% had one in any assay. Active and inactive are the calls of the source. How the source made its calls: active means growth percent below 10; inactive means the rest.
Outcome codes: active, inactive

# Compound, Experimental system, Group label
rows = [
    ("CCCCCN1C(=O)CCC1=O", "SNB-19 CNS", "inactive"),
    ("CN(C)CCC(=O)Nc1ccc(-n2cc(-c3cccc(NC(=S)Nc4cccc(-c5cn(-c6ccc(NC(=O)CCN(C)C)cc6)nn5)c4)c3)nn2)cc1", "SNB-19 CNS", "inactive"),
    ("Cc1n(Cc2ccc3ccccc3c2)c2ccccc2[n+]1Cc1ccc2ccccc2c1", "SNB-19 CNS", "active"),
    ("OCCN1CCN(CCCN2c3ccccc3Sc3ccc(C(F)(F)F)cc32)CC1", "SNB-19 CNS", "inactive"),
    ("Cc1c2oc3c(C)ccc(C(=O)OC(C)C4NC(=O)C(C(C)C)N(C)C(=O)CN(C)C(=O)C5CCCN5C(=O)C(C(C)C)NC4=O)c3nc-2c(C(=O)OC(C)C2NC(=O)C(C(C)C)N(C)C(=O)CN(C)C(=O)C3CCCN3C(=O)C(C(C)C)NC2=O)c(N)c1=O (stereo not given)", "SNB-19 CNS", "active"),
    ("COc1cnc2c(c1)C(=O)c1c-2n(CCCN2CCC(O)CC2)c(=O)c2cc(F)ccc12", "SNB-19 CNS", "inactive"),
    ("Cc1cc(=O)oc2cc(OCCn3c(C)nn(-c4ccc(Cl)cc4)c3=O)ccc12", "SNB-19 CNS", "inactive"),
    ("CCCCCCCCCCCCC1CCCC(C)C1 (stereo not given)", "SNB-19 CNS", "inactive"),
    ("COc1ccc2cc(-c3nc4ccccc4[nH]3)c(=O)oc2c1", "SNB-19 CNS", "inactive"),
    ("O=C(c1ccccc1)c1ccc(Oc2ccc([N+](=O)[O-])cc2[N+](=O)[O-])cc1", "SNB-19 CNS", "inactive"),
    ("CCN(CC)c1ccc(N=C2C=CC(=O)C=C2NC(C)=O)cc1", "SNB-19 CNS", "inactive"),
    ("COc1ccc(NC(=O)c2ccccc2-c2ccccc2)c(C(N)=O)c1", "SNB-19 CNS", "inactive"),
    ("COc1cc(-c2nnc(-c3nc(-c4cc(OC)c(OC)c(OC)c4)n4ccccc34)o2)ccc1N", "SNB-19 CNS", "inactive"),
    ("COc1cccc2c1C(=O)c1c(O)c3c(c(O)c1C2=O)C[C@@](O)(C(C)=O)C[C@@H]3O[C@H]1C[C@H](N)[C@H](O)[C@H](C)O1", "SNB-19 CNS", "active"),
    ("O=CNc1ccc2c(c1)Cc1cc([N+](=O)[O-])ccc1-2", "SNB-19 CNS", "inactive"),
    ("O=C1OC2(c3ccccc31)c1ccccc1-c1ccccc12", "SNB-19 CNS", "inactive"),
    ("Cc1cccc2nnc(-c3ccccc3)n12", "SNB-19 CNS", "inactive"),
    ("COc1ccc2c(c1)c(CC(=O)[Se]C)c(C)n2C(=O)c1ccc(Cl)cc1", "SNB-19 CNS", "inactive"),
    ("O=C(CNC(=O)c1cccc2ccccc12)Nc1ccccc1Cc1ccccc1", "SNB-19 CNS", "inactive"),
    ("COC(=O)c1cc2c(/C=C3/NC(=S)NC3=O)coc2n1C", "SNB-19 CNS", "inactive"),
]

---

System: RPMI-8226 leukemia
Assay: NCI-60 one-dose screen, 48 h
Conditions: 10 µM unless noted
The panel holds about 83,000 compounds, 20% with a hit somewhere; the sample as a whole holds those more often. Activity calls are given as the source filed them. Rule for the calls: active = growth percent below 10; inactive = the rest.
Outcome codes: active, inactive

# Compound, Group label
data = [
    ("C#C[C@]1(O)CCC2C3CCc4cc(O)ccc4C3CC[C@@]21C (stereo not given in full)", "inactive"),
    ("CC(NNC(=S)N1CCCCCC1)c1ccc2ccccc2n1 (stereo not given)", "inactive"),
    ("Cc1ncc(C(=O)Nc2ccc(CN3CCN(C)CC3)c(C(F)(F)F)c2)cc1C#Cc1cncc2ncccc12", "inactive"),
    ("Cc1ccc2nc3c(n2c1)C(=O)C(=O)c1ccccc1-3", "active"),
    ("C(#Cc1ccccc1C#Cc1ccccn1)c1ccc(OCCCCCCOc2ccc(C#Cc3ccccc3C#Cc3ccccn3)cc2)cc1", "active"),
    ("Cc1ccc(/C=C(/C#N)n2nnc3ncccc32)cc1", "active"),
    ("N=C1c2nc3n(c2C(=O)c2nc4n(c21)CCCCC4)CCCCC3", "inactive"),
    ("COc1ccc(C(=O)/C=C/c2cccc(Nc3ccnc4cc(Cl)ccc34)c2)cc1", "inactive"),
    ("COc1cc(/C=C/C(=O)CC(=O)/C=C/c2ccc(OC(=O)CCNC34CC5CC(CC(C5)C3)C4)c(OC)c2)ccc1OC(=O)CCNC12CC3CC(CC(C3)C1)C2", "active"),
    ("O=C(O)C1CCN(S(=O)(=O)c2ccc(-c3ccccc3)cc2)CC1", "inactive"),
]

---

Test system: MDA-MB-435 melanoma
Experiment: NCI-60 one-dose screen, 48 h
Details: 10 µM unless noted
This is part of a sample that, as a whole, favours compounds with a hit. Of some 83,000 tested, about 20% had one in any assay. The source made the active and inactive calls. How the source made its calls: active means growth percent below 10; inactive means the rest.
Outcome codes: active, inactive

# Compound, Group label
measured = [
    ("CCOC(=O)/C(=C/CC/C(C)=C/CC/C(C)=C/CCc1ccoc1)CC(=O)N1CCCCC1", "inactive"),
    ("CN1C(=O)C(C2=NN(C=O)C(c3ccc(F)cc3)C2)C(=O)N(C)C1=O (stereo not given)", "inactive"),
    ("O=C(CNC(=O)c1cccc2ccccc12)Nc1ccccc1Oc1ccc(O)cc1", "active"),
    ("C[C@]12CCC(=O)C=C1CCC1C2[C@@H](O)C[C@@]2(C)C1CC[C@]2(O)C(=O)COC(=O)CCC(=O)O (stereo not given in full)", "inactive"),
    ("CC(=O)Nc1cc(C(c2ccccc2)c2ccccc2)cc(C(c2ccccc2)c2ccccc2)c1C", "inactive"),
    ("O=CNc1ccc2c(c1)Cc1cc([N+](=O)[O-])ccc1-2", "active"),
    ("COc1cc(/C=C2\\SC(N3CCCCC3)=NC2=O)ccc1OCCCCCCOc1ccc(/C=C2\\SC(N3CCCCC3)=NC2=O)cc1OC", "active"),
    ("NS(=O)(=O)c1ccc(-n2nc(-c3ccc(Br)cc3)ccc2=O)cc1", "active"),
    ("C/C(=C\\CCc1ccoc1)CC/C=C(\\C)CCCN1CCOCC1", "inactive"),
    ("COc1ccc2c(c1)c(CC(=O)[Se]C)c(C)n2C(=O)c1ccc(Cl)cc1", "active"),
]

---

// reported growth for each item listed
Test system: HCT-15 colon
Assay: NCI-60 one-dose screen, 48 h (100 = growth as untreated, 0 = no growth, -100 = all killed)
Conditions: 10 µM unless noted
The panel holds about 83,000 compounds, 20% with a hit somewhere; the sample as a whole holds those more often.

# Compound, Experimental system, growth / %
data = [
    ("CCCCN=C(N)c1ccc(OCCSCCOc2ccc(C(N)=NCCCC)cc2)cc1", "HCT-15 colon", 90.5),
    ("NS(=O)(=O)c1ccc(N2CC(c3nc4ccccc4[nH]3)CC2=O)cc1 (stereo not given)", "HCT-15 colon", 107),
    ("O=C(CSc1ncc(-c2ccccc2)n1-c1ccccc1)Nc1ccc(-c2nc3ccccc3s2)cc1", "HCT-15 colon", 69),
    ("COc1ccc(-c2cc(-c3cccnc3)nc3sc(C(=O)Nc4ccccc4)c(N)c23)cc1OC", "HCT-15 colon", 63.5),
    ("Cc1c2oc3c(C)ccc(C(=O)OC(C)C4NC(=O)C(C(C)C)N(C)C(=O)CN(C)C(=O)C5CCCN5C(=O)C(C(C)C)NC4=O)c3nc-2c(C(=O)OC(C)C2NC(=O)C(C(C)C)N(C)C(=O)CN(C)C(=O)C3CCCN3C(=O)C(C(C)C)NC2=O)c(N)c1=O (stereo not given)", "HCT-15 colon", 7.36),
]

---

System: SK-MEL-2 melanoma
Assay: NCI-60 one-dose screen, 48 h
Conditions: 10 µM unless noted
About 83,000 compounds went through this panel and 20% of them were active in at least one assay; those are over-represented in the sample as a whole. Activity calls are given as the source filed them. How the source made its calls: active means growth percent below 10; inactive means the rest.
Outcome codes: true = active, false = inactive

# Compound, Experimental system, Group label
rows = [
    ("COc1ccc2c(c1)[n+](=O)c(C(=O)/C=C/c1cc(OC)c(OC)c(OC)c1)c(C)n2[O-]", "SK-MEL-2 melanoma", "false"),
    ("COc1cc(/C=C/C(=O)CC(=O)/C=C/c2ccc(OC(=O)CCNC34CC5CC(CC(C5)C3)C4)c(OC)c2)ccc1OC(=O)CCNC12CC3CC(CC(C3)C1)C2", "SK-MEL-2 melanoma", "false"),
    ("N#Cc1c(-c2ccccc2)cc(-c2ccccc2)n(CCCC(=O)O)c1=O", "SK-MEL-2 melanoma", "false"),
    ("COc1cc(-c2nc3sc4c(c3c(=O)[nH]2)CCCCCC4)cc(OC)c1OC", "SK-MEL-2 melanoma", "false"),
    ("Cc1cc2c(cc1C)[n+](Cc1ccc3ccccc3n1)cn2Cc1ccc2ccccc2n1", "SK-MEL-2 melanoma", "true"),
    ("CCOC1Oc2ccccc2C(=O)/C1=N/c1nccs1 (configuration not stated)", "SK-MEL-2 melanoma", "false"),
    ("CC(C)CC1NC(=O)C(CCCN)NC(=O)C(C(C)C)NC(=O)C2CCCN2C(=O)C(Cc2ccccc2)NC(=O)C(CC(C)C)NC(=O)C(CCCN)NC(=O)C(C(C)C)NC(=O)C2CCCN2C(=O)C(Cc2ccccc2)NC1=O (configuration not stated)", "SK-MEL-2 melanoma", "true"),
    ("COc1cc(/C=C/C(=O)c2c(C)n([O-])c3ccccc3[n+]2=O)cc(OC)c1OC", "SK-MEL-2 melanoma", "false"),
    ("COc1ccc2c(c1)c(CC(=O)[Se]C)c(C)n2C(=O)c1ccc(Cl)cc1", "SK-MEL-2 melanoma", "false"),
    ("NS(=O)(=O)c1ccc(-n2nc(-c3ccc(Br)cc3)ccc2=O)cc1", "SK-MEL-2 melanoma", "false"),
    ("Cc1onc(-c2ccccc2Cl)c1C(=O)N[C@@H]1C(=O)N2[C@@H]1SC(C)(C)[C@@H]2C(=O)O", "SK-MEL-2 melanoma", "false"),
    ("CCSc1nc(-c2ccc(F)cc2)c(C#N)c(=O)[nH]1", "SK-MEL-2 melanoma", "false"),
    ("Nc1nc(Nc2ccccc2SSc2ccccc2Nc2nc(N)nc(C(Cl)(Cl)Cl)n2)nc(C(Cl)(Cl)Cl)n1", "SK-MEL-2 melanoma", "false"),
    ("NC(=O)c1cc(Br)cc(Br)c1NS(=O)(=O)c1ccccc1", "SK-MEL-2 melanoma", "false"),
    ("COC(=O)C1=CCC(n2cnc3c(N)ncnc32)O1 (configuration not stated)", "SK-MEL-2 melanoma", "false"),
    ("Cc1c2oc3c(C)ccc(C(=O)OC(C)C4NC(=O)C(C(C)C)N(C)C(=O)CN(C)C(=O)C5CCCN5C(=O)C(C(C)C)NC4=O)c3nc-2c(C(=O)OC(C)C2NC(=O)C(C(C)C)N(C)C(=O)CN(C)C(=O)C3CCCN3C(=O)C(C(C)C)NC2=O)c(N)c1=O (configuration not stated)", "SK-MEL-2 melanoma", "true"),
    ("CN(C)c1ccc(-n2nc3ccccc3n2)cc1", "SK-MEL-2 melanoma", "false"),
]
